Origin of measurements: ChEMBL document CHEMBL5120858

# assay.target: Histone acetyltransferase p300 (Homo sapiens)
# Sequence (Q09472 whole entry, the tested form may be a part): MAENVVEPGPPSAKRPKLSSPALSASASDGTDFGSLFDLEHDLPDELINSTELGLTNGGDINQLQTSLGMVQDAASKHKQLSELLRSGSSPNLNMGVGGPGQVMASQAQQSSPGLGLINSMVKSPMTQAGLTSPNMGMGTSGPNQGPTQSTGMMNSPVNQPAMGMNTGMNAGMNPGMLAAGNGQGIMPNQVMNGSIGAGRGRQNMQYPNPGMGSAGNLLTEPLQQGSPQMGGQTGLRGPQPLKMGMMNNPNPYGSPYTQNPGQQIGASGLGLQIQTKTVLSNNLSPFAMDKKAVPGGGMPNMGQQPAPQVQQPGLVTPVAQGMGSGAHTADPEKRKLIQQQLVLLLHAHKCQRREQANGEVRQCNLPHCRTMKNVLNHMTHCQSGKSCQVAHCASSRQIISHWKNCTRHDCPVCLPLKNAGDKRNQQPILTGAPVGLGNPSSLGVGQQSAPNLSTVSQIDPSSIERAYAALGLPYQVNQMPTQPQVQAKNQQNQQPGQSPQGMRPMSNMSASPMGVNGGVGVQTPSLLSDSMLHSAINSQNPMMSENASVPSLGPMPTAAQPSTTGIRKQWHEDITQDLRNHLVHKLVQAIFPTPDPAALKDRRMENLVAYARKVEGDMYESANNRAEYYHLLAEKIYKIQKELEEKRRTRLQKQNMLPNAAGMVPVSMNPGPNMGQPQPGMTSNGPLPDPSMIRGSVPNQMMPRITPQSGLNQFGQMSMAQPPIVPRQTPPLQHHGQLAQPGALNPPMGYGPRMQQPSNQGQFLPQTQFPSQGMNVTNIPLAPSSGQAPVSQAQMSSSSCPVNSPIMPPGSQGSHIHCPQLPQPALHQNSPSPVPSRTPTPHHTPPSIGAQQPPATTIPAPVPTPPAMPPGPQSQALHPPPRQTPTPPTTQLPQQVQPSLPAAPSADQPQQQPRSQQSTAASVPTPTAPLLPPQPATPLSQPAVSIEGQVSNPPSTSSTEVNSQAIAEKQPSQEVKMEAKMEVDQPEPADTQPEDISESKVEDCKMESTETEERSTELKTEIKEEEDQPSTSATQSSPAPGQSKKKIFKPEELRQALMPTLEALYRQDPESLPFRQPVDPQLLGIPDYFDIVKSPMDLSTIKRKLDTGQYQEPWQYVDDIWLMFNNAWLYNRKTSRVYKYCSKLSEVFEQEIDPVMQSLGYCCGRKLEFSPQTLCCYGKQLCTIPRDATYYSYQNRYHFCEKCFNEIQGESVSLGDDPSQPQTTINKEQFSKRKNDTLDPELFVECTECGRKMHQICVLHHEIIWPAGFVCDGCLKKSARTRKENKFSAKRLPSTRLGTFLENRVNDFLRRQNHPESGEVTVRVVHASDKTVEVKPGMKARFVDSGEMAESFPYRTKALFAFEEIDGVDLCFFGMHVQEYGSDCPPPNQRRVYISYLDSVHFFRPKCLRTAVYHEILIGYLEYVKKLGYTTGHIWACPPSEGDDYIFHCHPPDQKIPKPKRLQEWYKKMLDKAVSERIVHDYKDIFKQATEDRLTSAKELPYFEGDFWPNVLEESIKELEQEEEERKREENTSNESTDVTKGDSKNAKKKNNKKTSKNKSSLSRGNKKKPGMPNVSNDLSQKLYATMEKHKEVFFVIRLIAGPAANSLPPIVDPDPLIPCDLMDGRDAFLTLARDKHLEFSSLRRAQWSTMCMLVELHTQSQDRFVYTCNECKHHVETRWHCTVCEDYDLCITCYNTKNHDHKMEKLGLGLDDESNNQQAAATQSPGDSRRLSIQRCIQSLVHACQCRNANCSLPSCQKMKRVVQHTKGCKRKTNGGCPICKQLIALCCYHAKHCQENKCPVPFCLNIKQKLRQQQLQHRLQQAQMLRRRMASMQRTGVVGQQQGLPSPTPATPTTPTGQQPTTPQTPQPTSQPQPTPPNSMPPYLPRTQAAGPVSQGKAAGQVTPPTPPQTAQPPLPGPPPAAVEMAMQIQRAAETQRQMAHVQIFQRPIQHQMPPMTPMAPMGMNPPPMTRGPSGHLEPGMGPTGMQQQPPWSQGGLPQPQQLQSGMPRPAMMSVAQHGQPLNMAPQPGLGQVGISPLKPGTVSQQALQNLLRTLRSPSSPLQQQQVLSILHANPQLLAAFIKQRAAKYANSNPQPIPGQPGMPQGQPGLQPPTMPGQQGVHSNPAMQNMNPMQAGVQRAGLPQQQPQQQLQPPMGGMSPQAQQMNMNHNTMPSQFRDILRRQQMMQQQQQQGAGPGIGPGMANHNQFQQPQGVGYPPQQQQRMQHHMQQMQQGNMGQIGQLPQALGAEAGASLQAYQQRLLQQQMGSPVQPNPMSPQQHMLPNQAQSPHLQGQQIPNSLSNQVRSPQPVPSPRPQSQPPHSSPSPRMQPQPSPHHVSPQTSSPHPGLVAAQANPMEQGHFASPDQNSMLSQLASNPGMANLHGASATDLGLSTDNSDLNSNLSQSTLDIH
# measurement.description: Inhibition of human p300 HAT domain (1195 to 1673 residues) using histone H3 peptide and acetyl-coA as substrates preincubated for 10 mins followed by substrate addition and measured after 30 mins by beckman scintillation counting analysis
measurement.label: IC50 (µM)
Numbers only, in µM.

Before answering, review these 3 worked examples.
NCc1ccc(-c2ncc(OCC3CCNCC3)nc2-c2ccc(CN)cc2)cc1; 2.8
Fc1cc(-c2ncc(OCC3CCNCC3)nc2-c2ccc(Br)c(F)c2)ccc1Br; 11.8
Brc1cccc(-c2ncc(OCC3CCNCC3)nc2-c2cccc(Br)c2)c1; 9.9

// moving on: another record for IC50
Prompt: Query (compound): Cc1ccc(-c2ncc(OCC3CCNCC3)cc2-c2ccc(CO)cc2)cc1 ; field requested: IC50
Completion: 62.6
